Values from patent US20060140858A1

- ASSAY EXPLANATION: Pretargeting: 125-I-hMN-14 × 734 bsAb, 48 h later 111-In-indium-IMP-156, biodistribution
- Type: in vivo, nude mice
- REPORTED CONDITIONS: female, nude (Taconic NCRNU), mouse; tumor, 3 h post peptide
Where a SMILES comes first, the peptide text is derived from it. The star is where a group is joined. DTPA = O=C(O)CN(CCN(CC(=O)O)CC(=O)O)CCN(CC(=O)O)CC(=O)*
READOUT LABEL: tissue uptake at 3 h (%ID/g)
I only need the number, in %ID/g, no unit after it.

Let me know recorded tissue uptake at 3 h for CC(=O)N[C@@H](Cc1ccccc1)C(=O)N[C@@H](CCCCNC(=O)CN(CCN(CCN(CC(=O)O)CC(=O)O)CC(=O)O)CC(=O)O)C(=O)N[C@@H](Cc1ccc(O)cc1)C(=O)N[C@@H](CCCCNC(=O)CN(CCN(CCN(CC(=O)O)CC(=O)O)CC(=O)O)CC(=O)O)C(N)=O [IMP 156, Ac-Phe-Lys(DTPA)-Tyr-Lys(DTPA)-NH2] (Ac-FK(DTPA)YK(DTPA)-NH2) , thanks.
52
